These data points were gathered from patent US11267807B2.

Target: KLF10 (Homo sapiens, UniProt Q13118)
Sequence (Q13118 1-480): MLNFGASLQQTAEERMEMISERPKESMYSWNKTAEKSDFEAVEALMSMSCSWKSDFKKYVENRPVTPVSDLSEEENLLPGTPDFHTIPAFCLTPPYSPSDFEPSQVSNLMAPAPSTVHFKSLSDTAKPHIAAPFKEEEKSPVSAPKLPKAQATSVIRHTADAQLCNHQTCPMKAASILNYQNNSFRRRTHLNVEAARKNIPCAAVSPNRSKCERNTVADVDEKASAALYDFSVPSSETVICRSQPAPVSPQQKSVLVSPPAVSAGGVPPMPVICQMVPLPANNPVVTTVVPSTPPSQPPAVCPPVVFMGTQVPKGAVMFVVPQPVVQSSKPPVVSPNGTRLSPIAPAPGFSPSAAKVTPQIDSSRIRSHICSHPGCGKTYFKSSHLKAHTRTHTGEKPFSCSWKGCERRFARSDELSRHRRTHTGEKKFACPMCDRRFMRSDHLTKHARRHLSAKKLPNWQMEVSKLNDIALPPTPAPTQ
Test: KLF10 CACCC-luciferase reporter assay in transfected HeLa cells
Assay type: cell-based
Parameters: host or cells: HeLa
Conditions: HeLa; KLF10 reporter activity, 100 μM, Table 1; read-out: % Inhibition at 100 μM (± sd)
TEST_READOUT: inhibition at 100 µM (%)

Example results:
Cc1ccc(C(=O)c2cc(O)c(O)c([N+](=O)[O-])c2)cc1 [Tolcapone, reference compound] :: 71.8
Cc1cc(C(=O)Nc2cnc(O)nc2O)ccc1[N+](=O)[O-] :: 61.7

(I) Cc1ccc(OCC(=O)c2cc(C)c(O)cc2O)cc1
(II) OC1=CN=C(O)/C1=C/Nc1ccccc1O
Task: Looking only at measured inhibition at 100 µM, which entry is lower, I or II ? To answer, give the label that identifies your chosen option.
Result: II

---

target: KLF10 (Homo sapiens, UniProt Q13118); assay: KLF10 CACCC-luciferase reporter assay in transfected HeLa cells; format: cell-based; parameters: host or cells: HeLa; conditions: concentration that inhibited 50% of KLF10 reporter activity, Table 1; read-out: IC50
TEST_READOUT: IC50 (µM)

(I) Cc1ccc(OCC(=O)c2cc(C)c(O)cc2O)cc1 [#48]
(II) Cc1cc(C(=O)Nc2cnc(O)nc2O)ccc1[N+](=O)[O-] [#77]
(III) Cc1ccc(C(=O)c2cc(O)c(O)c([N+](=O)[O-])c2)cc1 [Tolcapone, reference compound]
Task: Order the 3 listed items from lowest to highest according to IC50. Write the labels out in the order the request specifies.
Result: II, III, I
(II: 10 µM, III: 50 µM, I: 112 µM)
